Values from patent US11992473B2

Task for the reader: assign each of the following compounds its reported Significant log10 reduction compared to nontreated controls: T cell proliferation.
system: Venular endothelial cells, peripheral blood mononuclear cells; assay: BioMAP Diversity PLUS SAg system (T cell stimulation, Th1 type chronic inflammation); type: cell-based, human; settings: SAg system; 6.7 μM
One number for each entry, in log10.

Observe how each entry below is paired with its result.
N[C@@H](CC(O)C(=O)O)C(=O)O (some centres unmarked) [4-hydroxyglutamate]; −0.18
CCCCCCCCCCCCCCC(=O)O[C@H](CC(=O)[O-])C[N+](C)(C)C; −0.17
O=C(O)Cc1c[nH]cn1 [4-imidazoleacetate]; −0.09
N[C@@H](CCC(=O)NCC(=O)O)C(=O)O; −0.11

API: the following record is the query input.
So the reported Significant log10 reduction compared to nontreated controls: T cell proliferation for NCCCCC(=O)O [5-aminovalerate] , on Venular endothelial cells, peripheral blood mononuclear cells, turned out to be −0.14
